Origin of values: patent US7767671B2

Provide the recorded pIC50 for the entries that follow.
# system_tested: Raf and/or Mek kinase (human c-Raf, GST-MEK1) (Homo sapiens, UniProt P04049+Q02750)
# Construct: Sf9 insect cell lysate containing full length 6his-tagged recombinant human c-Raf; 6His; E. coli (MEK1-GST, GST-MAPK)
# Sequence (P04049 whole entry): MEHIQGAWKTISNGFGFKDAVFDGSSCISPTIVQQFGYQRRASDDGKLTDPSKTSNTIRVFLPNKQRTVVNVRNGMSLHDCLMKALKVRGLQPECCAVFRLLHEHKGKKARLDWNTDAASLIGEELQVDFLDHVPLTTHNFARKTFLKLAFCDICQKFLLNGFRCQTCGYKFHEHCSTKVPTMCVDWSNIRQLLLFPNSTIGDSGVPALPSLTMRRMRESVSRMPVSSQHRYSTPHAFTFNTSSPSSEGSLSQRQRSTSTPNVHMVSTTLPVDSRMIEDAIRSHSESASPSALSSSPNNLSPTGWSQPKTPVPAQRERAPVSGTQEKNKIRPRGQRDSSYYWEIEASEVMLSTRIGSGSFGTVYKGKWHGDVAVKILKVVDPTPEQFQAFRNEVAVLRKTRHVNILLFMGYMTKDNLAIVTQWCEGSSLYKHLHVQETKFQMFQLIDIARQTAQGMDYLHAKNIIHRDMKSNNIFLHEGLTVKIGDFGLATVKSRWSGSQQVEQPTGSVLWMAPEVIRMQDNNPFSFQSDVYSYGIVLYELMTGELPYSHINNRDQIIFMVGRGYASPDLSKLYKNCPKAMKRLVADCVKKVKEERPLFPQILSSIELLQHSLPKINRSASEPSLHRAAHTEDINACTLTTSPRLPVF
# Sequence (Q02750 whole entry): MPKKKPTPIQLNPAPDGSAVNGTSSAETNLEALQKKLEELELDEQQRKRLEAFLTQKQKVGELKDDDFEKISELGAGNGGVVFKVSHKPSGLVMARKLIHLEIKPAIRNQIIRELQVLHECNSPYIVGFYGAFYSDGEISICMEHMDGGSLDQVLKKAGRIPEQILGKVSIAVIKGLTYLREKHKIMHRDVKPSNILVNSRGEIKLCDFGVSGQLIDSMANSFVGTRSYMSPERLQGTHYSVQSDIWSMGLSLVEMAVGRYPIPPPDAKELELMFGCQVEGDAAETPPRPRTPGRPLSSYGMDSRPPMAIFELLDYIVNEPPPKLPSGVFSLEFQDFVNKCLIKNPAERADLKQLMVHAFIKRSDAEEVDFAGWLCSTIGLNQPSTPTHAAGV
# assay_comment: Raf/Mek kinase cascade assay
# study_conditions: c-Raf dependent activation of GST-MEK and GST-MAPK, phospho-MAPK ELISA; (a)/(b)/(c) = average of two/three/four runs
# Experimental: Raf/Mek Kinase Cascade Assay Procedure (Specific Activity: ˜200 U/ml). Human Non-active Mek-1-GST and human GST-MAP kinase (recombinant proteins produced in E. coli). Stock Solutions Raf/Mek Cascade Assay: • 1. Assay Dilution Buffer (ADB): 20 mM MOPS, pH 7.2, 25 mM β-glycerol phosphate, 5 mM EGTA, 1 mM sodium orthovanadate, 1 mM dithiothreitol; • 2. […] Wash 3× with TBST, Read plates in Wallac Victor model Plate Reader; and • 13. […]
By convention, pIC50 is the negative base-10 log of a molar concentration.

[in] Report pIC50 for COc1cc2c(Nc3ccc(Sc4ccccn4)cc3)c(C#N)cnc2cc1N1CCC(N2CCCC2)CC1 tested on Raf and/or Mek kinase (human c-Raf, GST-MEK1) (Homo sapiens, UniProt P04049+Q02750).
[out] 5.85

[in] Report pIC50 for CCOc1cc2c(Nc3ccc(Sc4nccn4C)c(Cl)c3)c(C#N)cnc2cc1N1CCC(N2CCCC2)CC1 tested on Raf and/or Mek kinase (human c-Raf, GST-MEK1) (Homo sapiens, UniProt P04049+Q02750).
[out] 7.12

[in] Report pIC50 for COc1cc2c(Nc3ccc(Sc4ccccn4)c(Cl)c3)c(C#N)cnc2cc1N1CCC(N2CCCC2)CC1 tested on Raf and/or Mek kinase (human c-Raf, GST-MEK1) (Homo sapiens, UniProt P04049+Q02750).
[out] 6.10

[in] Report pIC50 for COc1cc2c(Nc3ccc(Sc4nccn4C)c(Cl)c3)c(C#N)cnc2cc1N1CCC(N2CCN(C)CC2)CC1 tested on Raf and/or Mek kinase (human c-Raf, GST-MEK1) (Homo sapiens, UniProt P04049+Q02750).
[out] 6.53
